Data provenance is patent US20090069320A1.

# reported inhibition at 10 µM; entries follow
# tested system: mGluR5 receptor (Sus scrofa, UniProt I3LUI7)
# Construct: 450 μg of protein from brain homogenate with 5 nM ^3[H]-MPEP; from tissue; host or cells: pig brain halves without medulla, cerebellum and pons
# Sequence (I3LUI7 19-1212): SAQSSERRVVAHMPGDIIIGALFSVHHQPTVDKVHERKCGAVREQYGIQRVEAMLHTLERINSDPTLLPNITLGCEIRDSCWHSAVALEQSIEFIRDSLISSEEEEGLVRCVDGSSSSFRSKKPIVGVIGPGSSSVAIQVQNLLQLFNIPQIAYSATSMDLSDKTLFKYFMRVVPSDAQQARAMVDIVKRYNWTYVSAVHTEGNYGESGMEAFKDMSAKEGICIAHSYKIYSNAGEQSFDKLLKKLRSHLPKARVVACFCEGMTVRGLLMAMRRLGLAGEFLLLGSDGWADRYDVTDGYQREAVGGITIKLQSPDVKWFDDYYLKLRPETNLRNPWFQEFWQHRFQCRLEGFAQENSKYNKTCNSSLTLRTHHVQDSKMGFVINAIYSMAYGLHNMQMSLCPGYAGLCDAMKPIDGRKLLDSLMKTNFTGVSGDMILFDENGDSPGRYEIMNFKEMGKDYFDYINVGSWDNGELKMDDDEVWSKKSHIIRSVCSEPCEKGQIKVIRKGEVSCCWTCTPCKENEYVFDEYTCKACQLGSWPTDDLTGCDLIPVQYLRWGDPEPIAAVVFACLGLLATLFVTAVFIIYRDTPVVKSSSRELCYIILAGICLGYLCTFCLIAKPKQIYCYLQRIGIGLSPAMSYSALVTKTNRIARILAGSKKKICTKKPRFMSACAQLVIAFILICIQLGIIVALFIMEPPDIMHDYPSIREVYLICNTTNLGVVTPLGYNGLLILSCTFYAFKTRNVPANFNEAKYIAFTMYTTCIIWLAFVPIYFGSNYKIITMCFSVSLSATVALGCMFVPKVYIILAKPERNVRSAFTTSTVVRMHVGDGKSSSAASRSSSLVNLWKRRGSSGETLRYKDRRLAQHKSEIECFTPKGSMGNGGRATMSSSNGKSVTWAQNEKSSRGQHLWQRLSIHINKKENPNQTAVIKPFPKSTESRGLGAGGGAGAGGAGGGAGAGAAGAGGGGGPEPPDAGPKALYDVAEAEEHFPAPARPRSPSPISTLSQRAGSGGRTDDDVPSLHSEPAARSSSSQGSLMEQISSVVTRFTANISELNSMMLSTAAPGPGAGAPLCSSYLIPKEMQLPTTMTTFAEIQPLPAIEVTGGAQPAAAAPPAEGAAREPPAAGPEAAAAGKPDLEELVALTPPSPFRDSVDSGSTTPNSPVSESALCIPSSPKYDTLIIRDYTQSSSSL
# assay name: [3H]-MPEP mGluR5 receptor binding assay (pig brain homogenate)
# stated conditions: 10 μM compound, 5 nM [3H]-MPEP, read-out: % Inhibition of mGluR5 Receptor (pig) [^3H]-MPEP Bond at 10 μM
Structures can show the parent of a compound that is named as a salt.
outcome measure: inhibition at 10 µM

>>> result("O=C(c1ccccc1C(F)(F)F)N(Cc1cc(-c2ccc3ncnc(NC4CC4)c3c2)ccc1Cl)C1CC1 [Example 740]")
"85%"
>>> result("CC(=O)N(Cc1ccccc1)Cc1cccc(-c2ccc3ncnc(NC4CC4)c3c2)c1 [Example 219, hydrochloride]")
"45%"
>>> result("O=S(=O)(Cc1ccccc1)N(Cc1cc(-c2ccc3ncnc(NC4CC4)c3c2)ccc1F)C1CC1 [Example 437]")
"90%"
>>> result("CCCN(Cc1cccc(-c2ccc3ncnc(Nc4ccccc4)c3c2)c1)C(=O)c1ccccn1 [Example 95]")
"61%"
>>> result("O=C(c1ccccc1C(F)(F)F)N(Cc1cc(-c2ccc3ncnc(NC4CC4)c3c2)ccc1F)C1CC1 [Example 413]")
"89%"
>>> result("CCCN(Cc1cccc(-c2ccc3ncnc(Nc4ccccc4)c3c2)c1)C(=O)c1ccco1 [Example 120]")
"48%"
>>> result("CC(C)(C)Nc1ncnc2ccc(-c3ccc(F)c(CN(C(=O)c4ccccc4C(F)(F)F)C4CC4)c3)cc12 [Example 814]")
"89%"
>>> result("Fc1c(CNC2CC2)cccc1-c1ccc2ncnc(NC3CC3)c2c1 [Example 324]")
"55%"
>>> result("O=S(=O)(c1cccc2cccnc12)N(Cc1cc(-c2ccc3ncnc(NC4CC4)c3c2)ccn1)C1CC1 [Example 812]")
"73%"
>>> result("CC(C)S(=O)(=O)N(C)Cc1cc(-c2ccc3ncnc(NCc4ccccc4)c3c2)ccc1F [Example 484]")
"63%"
>>> result("CN(C)CC(=O)N(Cc1cc(-c2ccc3ncnc(NC(C)(C)C)c3c2)ccc1F)C1CC1 [Example 861]")
"55%"
>>> result("CCCN(Cc1cccc(-c2ccc3ncnc(Nc4ccccc4)c3c2)c1)C(=O)c1cccnc1 [Example 117]")
"68%"
>>> result("Cc1cc2ncnc(NC3CC3)c2cc1-c1cccc(CN(C(=O)c2cc(Cl)cc(Cl)c2)C2CC2)c1 [Example 692]")
"67%"
>>> result("CC(C)S(=O)(=O)N(Cc1cccc(-c2ccc3ncnc(NCCc4ccccc4)c3c2)c1)C1CC1 [Example 818]")
"34%"
>>> result("Cc1nc(NC2CC2)c2cc(-c3cccc(CN(C(=O)Cc4ccccc4)C4CC4)c3)ccc2n1 [Example 544]")
"66%"
>>> result("O=C(c1ccncc1)N(Cc1cccc(-c2ccc3ncnc(NC4CC4)c3c2)c1)C1CC1 [Example 165]")
"88%"
>>> result("O=C(c1ccccn1)N(Cc1cccc(-c2ccc3ncnc(NC4CC4)c3c2)c1)C1CC1 [Example 170]")
"78%"
>>> result("CC(=O)N(Cc1nc(-c2ccc3ncnc(NC4CC4)c3c2)cs1)C1CC1 [Example 903]")
"87%"
>>> result("N#Cc1ccc(C(=O)N(Cc2cccc(-c3ccc4ncnc(NC5CC5)c4c3)c2)C2CC2)cc1 [Example 161]")
"96%"
>>> result("CNc1ncnc2ccc(-c3ccc(F)c(CN(C)S(=O)(=O)Cc4ccccc4)c3)cc12 [Example 586]")
"62%"
>>> result("CCCN(Cc1cccc(-c2ccc3ncnc(Nc4ccccc4)c3c2)c1)C(=O)c1ccc(C(F)(F)F)cc1F [Example 93]")
"38%"
>>> result("CCCC(=O)N(Cc1ccccc1)Cc1cccc(-c2ccc3ncnc(NC(C)C)c3c2)c1 [Example 148]")
"40%"
>>> result("N#CCC(=O)N(Cc1ccc(F)c(-c2ccc3ncnc(NC4CC4)c3c2)c1)C1CC1 [Example 900]")
"81%"
>>> result("CCN(CC)c1ncnc2ccc(-c3cccc(CN(C)C(=O)c4ccc(C)cc4)c3)cc12 [Example 75]")
"32%"
>>> result("O=C(c1ccccc1)N(Cc1cccc(-c2cc(F)c3ncnc(NC4CC4)c3c2)c1)C1CC1 [Example 693]")
"102%"
>>> result("CCN(CC)c1ncnc2ccc(-c3cccc(CN(C)C(=O)c4cccc(C#N)c4)c3)cc12 [Example 69]")
"38%"
>>> result("CCCN(Cc1cccc(-c2ccc3ncnc(Nc4ccccc4)c3c2)c1)C(=O)CC#N [Example 112]")
"33%"
>>> result("CN(c1ncnc2ccc(-c3cccc(CN4C(=O)CCC4=O)c3)cc12)C1CC1 [Example 901]")
"40%"
>>> result("O=C(c1cc(Cl)cc(Cl)c1)N(Cc1cc(-c2ccc3ncnc(NC4CC4)c3c2)ccn1)C1CC1 [Example 750]")
"42%"
>>> result("Cc1nc(NC2CC2)c2cc(-c3ccc(F)c(CN(C(=O)c4cccc(C(F)(F)F)c4)C4CC4)c3)ccc2n1 [Example 582]")
"80%"
>>> result("Cc1cc2ncnc(NC3CC3)c2cc1-c1cccc(CN(C(=O)c2ccco2)C2CC2)c1 [Example 691]")
"83%"
